Provenance of the data: patent US20190308988A1

Provide the recorded solubility thermodynamic for the entries that follow.
Assay: Solubility determination in oil (Table 10)
Details: 40 °C, water, thermodynamic from solid, Equilibrium solubility: Water, section 'Solubility by volumetric flask method'; Heating Temp. 40 °C, Obs. Temp. 40 °C
Description: A known amount of test substance (˜40 mg) was weighed into the vial, 100 μL of oil was added and heated to 60° C. and then system was slurried to reach equilibrium. […] Extra oil was added into the vial once compound precipitated out and then the system was re-equilibrated at 1000 rpm at room temperature (25° C.). Final concentration was determined by HPLC method as described below in Table 6a and 6b.

Q: For the compound "CCCCCCCCCCCOC(=O)OCOc1ccc2c3c1O[C@H]1C(=O)CC[C@@]4(O)C(C2)N(CC2CC2)CC[C@]314" , report solubility thermodynamic.
A: < 1 µg/mL

Q: For the compound "C=C1CC[C@@]2(O)C3Cc4ccc(OC(=O)OCCCCCCCCCCC)c5c4[C@@]2(CCN3CC2CC2)[C@H]1O5" , report solubility thermodynamic.
A: < 1 µg/mL

Q: For the compound "C=C1CC[C@@]2(O)C3Cc4ccc(OCOC(=O)OCCCCCCCCCCC)c5c4[C@@]2(CCN3CC2CC2)[C@H]1O5" , report solubility thermodynamic.
A: < 1 µg/mL

----------
assay: Rat pharmacokinetic studies, intramuscular administration; assay type: in vivo, male Sprague Dawley Rats; conditions: male, Sprague Dawley, rat, plasma, im; 80 mg/kg, Sesame oil + 1% Benzyl Alcohol; read-out: AUC0-inf (ng · h/mL) prodrug
Provide the recorded AUC(0-inf) for the entries that follow.
# number only, unit ng·h/mL dropped from output

Q: For the compound "C=C1CC[C@@]2(O)C3Cc4ccc(OC(=O)OCCCCCCCCCCCC)c5c4[C@@]2(CCN3CC2CC2)[C@H]1O5" , report AUC(0-inf).
A: 78.9

Q: For the compound "C=C1CC[C@@]2(O)C3Cc4ccc(OC(=O)CCCCCCC/C=C/CCCCCCCC)c5c4[C@@]2(CCN3CC2CC2)[C@H]1O5" , report AUC(0-inf).
A: 679

----------
molecular target: DOR (Homo sapiens)
Sequence (P41143 whole entry): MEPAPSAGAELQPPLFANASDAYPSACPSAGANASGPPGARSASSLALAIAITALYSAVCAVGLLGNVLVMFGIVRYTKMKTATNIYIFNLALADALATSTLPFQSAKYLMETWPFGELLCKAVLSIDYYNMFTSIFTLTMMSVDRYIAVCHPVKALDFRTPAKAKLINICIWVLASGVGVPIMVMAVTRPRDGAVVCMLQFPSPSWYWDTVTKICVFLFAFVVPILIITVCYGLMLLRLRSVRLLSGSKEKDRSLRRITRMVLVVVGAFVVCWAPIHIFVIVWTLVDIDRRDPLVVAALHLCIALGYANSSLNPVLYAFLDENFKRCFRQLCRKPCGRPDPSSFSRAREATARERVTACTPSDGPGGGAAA
Consider the cut-off 1000 nM. If the recorded IC50 is strictly smaller, the label is true; if not, the label is false.

Q: Consider the compound "C=C1CC[C@@]2(O)C3Cc4ccc(OCOC(=O)OCCCCCCCCCCCC)c5c4[C@@]2(CCN3CC2CC2)[C@H]1O5" . Is its IC50 strictly less than 1000 nM?
A: false

Q: Consider the compound "C=C1CC[C@@]2(O)C3Cc4ccc(OC(=O)OCCCCCCCCCCCC)c5c4[C@@]2(CCN3CC2CC2)[C@H]1O5" . Is its IC50 strictly less than 1000 nM?
A: true

Q: Consider the compound "C=C1CC[C@@]2(O)C3Cc4ccc(OC(=O)OCCCCCCCCCCCCC)c5c4[C@@]2(CCN3CC2CC2)[C@H]1O5" . Is its IC50 strictly less than 1000 nM?
A: false

Q: Consider the compound "C=C1CC[C@@]2(O)C3Cc4ccc(OCOC(=O)CCCCCCCCCCC)c5c4[C@@]2(CCN3CC2CC2)[C@H]1O5" . Is its IC50 strictly less than 1000 nM?
A: true

Q: Consider the compound "C=C1CC[C@@]2(O)C3Cc4ccc(OCOC(=O)OCCCCCCCCCCCCCCCC)c5c4[C@@]2(CCN3CC2CC2)[C@H]1O5" . Is its IC50 strictly less than 1000 nM?
A: false

Q: Consider the compound "CCCCCCCCOC(=O)Oc1ccc2c3c1O[C@H]1C(=O)CC[C@@]4(O)C(C2)N(CC2CC2)CC[C@]314" . Is its IC50 strictly less than 1000 nM?
A: true

Q: Consider the compound "C=C1CC[C@@]2(O)C3Cc4ccc(OCOC(=O)CCCCCCCCCCCCCCC)c5c4[C@@]2(CCN3CC2CC2)[C@H]1O5" . Is its IC50 strictly less than 1000 nM?
A: false

Q: Consider the compound "C=C1CC[C@@]2(O)C3Cc4ccc(OC(=O)OCCCCCCCCCCCCCCC)c5c4[C@@]2(CCN3CC2CC2)[C@H]1O5" . Is its IC50 strictly less than 1000 nM?
A: false

Q: Consider the compound "C=C1CC[C@@]2(O)C3Cc4ccc(OCOC(=O)OCCCCCCCCCCCCCC)c5c4[C@@]2(CCN3CC2CC2)[C@H]1O5" . Is its IC50 strictly less than 1000 nM?
A: false

Q: Consider the compound "C=C1CC[C@@]2(O)C3Cc4ccc(OCOC(=O)CCCCCCCCCCCCC)c5c4[C@@]2(CCN3CC2CC2)[C@H]1O5" . Is its IC50 strictly less than 1000 nM?
A: true
